target: EPHB1 (UniProt P54762); experiment: phosphorylation enrichment, bacterial display (enrichment ratio); higher = better substrate or ligand; peptides without Tyr show the background
Sequence (P54762 whole entry, looked up): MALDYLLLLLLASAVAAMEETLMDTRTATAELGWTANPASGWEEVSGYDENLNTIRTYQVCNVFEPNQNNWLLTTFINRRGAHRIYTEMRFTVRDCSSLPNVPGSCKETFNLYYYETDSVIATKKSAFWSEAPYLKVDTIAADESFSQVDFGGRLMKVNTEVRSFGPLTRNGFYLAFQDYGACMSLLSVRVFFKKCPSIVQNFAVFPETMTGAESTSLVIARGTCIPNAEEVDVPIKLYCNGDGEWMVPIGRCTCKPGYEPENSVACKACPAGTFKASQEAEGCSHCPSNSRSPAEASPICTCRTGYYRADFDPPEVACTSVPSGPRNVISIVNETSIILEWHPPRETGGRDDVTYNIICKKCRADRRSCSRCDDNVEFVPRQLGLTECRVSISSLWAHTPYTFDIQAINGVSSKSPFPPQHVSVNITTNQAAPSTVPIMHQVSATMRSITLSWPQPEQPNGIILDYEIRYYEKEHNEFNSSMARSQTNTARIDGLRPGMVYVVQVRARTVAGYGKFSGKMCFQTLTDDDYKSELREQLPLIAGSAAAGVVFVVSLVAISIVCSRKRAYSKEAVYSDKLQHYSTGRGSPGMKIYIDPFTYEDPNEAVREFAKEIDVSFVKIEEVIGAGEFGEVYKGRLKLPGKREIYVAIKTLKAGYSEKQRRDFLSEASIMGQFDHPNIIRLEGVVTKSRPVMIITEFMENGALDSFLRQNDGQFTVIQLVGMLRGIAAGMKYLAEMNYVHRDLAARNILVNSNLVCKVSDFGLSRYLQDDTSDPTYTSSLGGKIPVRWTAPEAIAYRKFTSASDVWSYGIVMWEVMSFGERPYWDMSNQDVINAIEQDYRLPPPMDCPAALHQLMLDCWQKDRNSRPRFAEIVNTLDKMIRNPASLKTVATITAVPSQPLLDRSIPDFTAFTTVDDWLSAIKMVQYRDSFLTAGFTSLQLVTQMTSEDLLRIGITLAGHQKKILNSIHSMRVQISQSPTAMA
PROPERTY_NAME: phosphorylation enrichment

[
  {
    "SEQUENCE_ENTRY": "PSQRRYLYYYS [PTEN_Y174_V175L]",
    "VALUE": 0.616
  },
  {
    "SEQUENCE_ENTRY": "KVGNEYITKGQ [MYH7_Y410_V411I]",
    "VALUE": 0.358
  },
  {
    "SEQUENCE_ENTRY": "QRRFVYFFSFL [PTEN_Y176_YF]",
    "VALUE": 0.563
  },
  {
    "SEQUENCE_ENTRY": "LNTFHYAGVSA [POLR2A_Y1109]",
    "VALUE": 0.434
  },
  {
    "SEQUENCE_ENTRY": "LGKGSYAKVKS [TSSK2_Y23]",
    "VALUE": 0.482
  },
  {
    "SEQUENCE_ENTRY": "NVADHYGVYKP [ATP6V0D2_Y271]",
    "VALUE": 0.401
  },
  {
    "SEQUENCE_ENTRY": "IIRFNYLLDVL [FGFR4_Y237_S232I_YF]",
    "VALUE": 0.688
  },
  {
    "SEQUENCE_ENTRY": "TRDVNYGWTIR [MT-CYB_Y75_I78T]",
    "VALUE": 0.544
  },
  {
    "SEQUENCE_ENTRY": "FSGKAYADEEQ [CRIM1_Y826_R831Q]",
    "VALUE": 0.581
  },
  {
    "SEQUENCE_ENTRY": "QRKRAYVEIEF [MAK16_Y282_YF]",
    "VALUE": 0.838
  },
  {
    "SEQUENCE_ENTRY": "KGKLIYLLGDS [NXPE1_Y350]",
    "VALUE": 0.391
  },
  {
    "SEQUENCE_ENTRY": "ALECLYRREKR [TEKT5_Y195_H196R]",
    "VALUE": 0.466
  },
  {
    "SEQUENCE_ENTRY": "LAAAGYDVKKN [H1-3_Y72_E75K]",
    "VALUE": 0.355
  },
  {
    "SEQUENCE_ENTRY": "VFGVSYDEYRY [CFTR_Y512_I507V]",
    "VALUE": 0.538
  },
  {
    "SEQUENCE_ENTRY": "SSYSRYIMMPN [LEF1_Y114_G113R]",
    "VALUE": 1.9
  },
  {
    "SEQUENCE_ENTRY": "PAKPRYRARQR [KCNJ11_Y26_E23K]",
    "VALUE": 0.774
  },
  {
    "SEQUENCE_ENTRY": "RFLRGYQQDAF [HLA-A_Y137_R138Q_YF]",
    "VALUE": 0.796
  },
  {
    "SEQUENCE_ENTRY": "NFHRGYHLQVL [CD200R1L_Y138]",
    "VALUE": 0.483
  },
  {
    "SEQUENCE_ENTRY": "WSFNLYDINKD [KCNIP3_Y174_A170S]",
    "VALUE": 0.894
  },
  {
    "SEQUENCE_ENTRY": "PTQLPYDHKWK [KIT_Y578_E583K]",
    "VALUE": 0.484
  },
  {
    "SEQUENCE_ENTRY": "LQLLGHRPVYS [CHST6_Y358_Y358H]",
    "VALUE": 0.462
  },
  {
    "SEQUENCE_ENTRY": "EEKKKYFDAKI [CASP5_Y103_T106A_YF]",
    "VALUE": 0.385
  },
  {
    "SEQUENCE_ENTRY": "YETSHYPASPD [CTNND2_Y1217]",
    "VALUE": 0.382
  },
  {
    "SEQUENCE_ENTRY": "DTNIAYWLHPR [POMT1_Y581]",
    "VALUE": 0.433
  },
  {
    "SEQUENCE_ENTRY": "RRMLQYLTVND [PPFIBP2_Y663]",
    "VALUE": 0.417
  },
  {
    "SEQUENCE_ENTRY": "GKLIFYDLRGE [KARS1_Y145]",
    "VALUE": 0.492
  },
  {
    "SEQUENCE_ENTRY": "FSIDHYLGKEM [G6PD_Y202_R198S_YF]",
    "VALUE": 0.669
  },
  {
    "SEQUENCE_ENTRY": "TGEKPYECVQC [ZNF24_Y335]",
    "VALUE": 0.514
  },
  {
    "SEQUENCE_ENTRY": "VSNFNYFFHRE [KCNA1_Y413_YF]",
    "VALUE": 0.642
  },
  {
    "SEQUENCE_ENTRY": "RMDGKYACSYT [FLNB_Y704_T703K]",
    "VALUE": 0.437
  },
  {
    "SEQUENCE_ENTRY": "DDDPEYRKFLE [UPF3B_Y160]",
    "VALUE": 0.612
  }
]

----------
target: Grb2 SH2 (UniProt P62993); test: SH2 binding enrichment of the phosphorylated peptide, bacterial display (enrichment ratio); higher = better substrate or ligand; peptides without Tyr show the background
Sequence (P62993 whole entry, looked up): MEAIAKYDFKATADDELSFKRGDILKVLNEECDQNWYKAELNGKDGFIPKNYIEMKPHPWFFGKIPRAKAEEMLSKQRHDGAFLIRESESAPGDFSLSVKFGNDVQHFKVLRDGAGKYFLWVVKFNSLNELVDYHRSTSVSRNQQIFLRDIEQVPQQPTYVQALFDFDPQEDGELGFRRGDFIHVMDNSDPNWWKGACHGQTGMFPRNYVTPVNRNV
In this section, each of the sequences is paired with its reported SH2 binding enrichment.

[
  {
    "SEQUENCE_ENTRY": "MRALIYNSSTA [PLEKHA7_Y243]",
    "SH2 binding enrichment": 0.794
  },
  {
    "SEQUENCE_ENTRY": "MALDIYRASFF [ALK_Y1278_R1275L_YF]",
    "SH2 binding enrichment": 0.803
  },
  {
    "SEQUENCE_ENTRY": "DPHKIYEFVNS [IRF3_Y107]",
    "SH2 binding enrichment": 0.902
  },
  {
    "SEQUENCE_ENTRY": "RPQDGFRIVQH [PTPRT_Y1329_Y1329F]",
    "SH2 binding enrichment": 0.766
  },
  {
    "SEQUENCE_ENTRY": "KFLVGYEMLAQ [GALT_Y339_M336L]",
    "SH2 binding enrichment": 1.01
  },
  {
    "SEQUENCE_ENTRY": "TTGLIYIGSHD [AASDH_Y870]",
    "SH2 binding enrichment": 1.04
  },
  {
    "SEQUENCE_ENTRY": "IVRSLYEDVED [VHL_Y185_L188V]",
    "SH2 binding enrichment": 0.937
  },
  {
    "SEQUENCE_ENTRY": "EVVGGYSVHNA [MLH1_Y183_R182G]",
    "SH2 binding enrichment": 0.951
  }
]

----------
biological target: EPHB2 (UniProt P29323); assay: phosphorylation enrichment, bacterial display (enrichment ratio); higher = better substrate or ligand; peptides without Tyr show the background
Sequence (P29323 whole entry, looked up): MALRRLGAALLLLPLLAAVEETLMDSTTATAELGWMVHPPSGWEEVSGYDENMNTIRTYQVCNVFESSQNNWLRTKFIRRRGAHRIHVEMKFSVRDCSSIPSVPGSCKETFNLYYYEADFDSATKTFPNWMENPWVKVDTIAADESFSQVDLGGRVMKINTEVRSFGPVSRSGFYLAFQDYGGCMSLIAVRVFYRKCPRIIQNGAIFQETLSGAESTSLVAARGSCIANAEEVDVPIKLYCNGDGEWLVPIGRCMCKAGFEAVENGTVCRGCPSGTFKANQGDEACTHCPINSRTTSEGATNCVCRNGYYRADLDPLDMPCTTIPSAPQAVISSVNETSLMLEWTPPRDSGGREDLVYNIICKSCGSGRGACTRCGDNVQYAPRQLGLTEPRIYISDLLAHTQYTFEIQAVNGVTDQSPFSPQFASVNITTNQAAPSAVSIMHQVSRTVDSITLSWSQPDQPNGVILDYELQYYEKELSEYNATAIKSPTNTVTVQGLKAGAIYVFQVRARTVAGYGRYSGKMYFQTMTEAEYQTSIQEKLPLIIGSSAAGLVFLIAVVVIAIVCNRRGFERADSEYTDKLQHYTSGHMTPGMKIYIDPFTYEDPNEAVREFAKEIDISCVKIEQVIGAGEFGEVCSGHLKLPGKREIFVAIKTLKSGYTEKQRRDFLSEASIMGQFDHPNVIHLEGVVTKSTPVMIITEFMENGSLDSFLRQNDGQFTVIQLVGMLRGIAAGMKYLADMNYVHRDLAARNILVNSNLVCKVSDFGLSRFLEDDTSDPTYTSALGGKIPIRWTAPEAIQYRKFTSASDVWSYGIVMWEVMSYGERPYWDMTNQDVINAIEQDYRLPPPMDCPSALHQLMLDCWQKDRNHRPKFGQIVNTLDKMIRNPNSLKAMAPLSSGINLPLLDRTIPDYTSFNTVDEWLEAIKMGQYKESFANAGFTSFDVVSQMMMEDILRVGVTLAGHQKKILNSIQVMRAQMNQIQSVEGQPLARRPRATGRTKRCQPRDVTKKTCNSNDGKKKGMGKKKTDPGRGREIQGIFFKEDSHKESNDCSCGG

[
  {
    "SEQUENCE_ENTRY": "KRLAVYQAGAR [APOE_Y180]",
    "phosphorylation enrichment": 0.399
  },
  {
    "SEQUENCE_ENTRY": "RMDGKYACSYT [FLNB_Y704_T703K]",
    "phosphorylation enrichment": 0.471
  },
  {
    "SEQUENCE_ENTRY": "NQILPYIKELV [PPP2R1B_Y341]",
    "phosphorylation enrichment": 0.611
  }
]

Reference source: the supplement of paper PMC10065799
